Sourced from patent US20250025454A1

- Assay Summary: Pharmacokinetics (plasma, lung at 24 h) after single oral dosing in male Sprague-Dawley rats
- Settings: male, Sprague-Dawley, rat, in vivo, po, 1000 mg/kg
Assay Readout: concentration at 24 h

Compound: Cc1c(-c2ccc(O)cc2)n(Cc2ccc(OCCN3CCCCC3)cc2)c2ccc(O)cc12 [Pipendoxifene]
Result: 13400 ng/g

---

- Assay Summary: Pharmacokinetics (plasma and lung tissue) after single and 5-day repeat oral dosing in female 129S1 mice
- Settings: female, 129S1, mouse, in vivo, po, 50 mg/kg, AUClast ± SE, plasma; 50 mg/kg PO multiple, 5-day, dose

Compound: Cc1c(-c2ccc(O)cc2)n(Cc2ccc(OCCN3CCCCC3)cc2)c2ccc(O)cc12 [Pipendoxifene]
AUC(0-t) (ng·h/mL): 1390

---

- Assay Summary: Pharmacokinetics (plasma and lung tissue) after single and 5-day repeat oral dosing in female 129S1 mice
- Settings: female, 129S1, mouse, in vivo, 50 mg/kg, Lung/Plasma AUC ratio, Day 1; 50 mg/kg

Molecule: Cc1c(-c2ccc(O)cc2)n(Cc2ccc(OCCN3CCCCC3)cc2)c2ccc(O)cc12 [Pipendoxifene]
Kp: 65

---

- Assay Summary: Pharmacokinetics (plasma and lung tissue) after single and 5-day repeat oral dosing in female 129S1 mice
- Settings: female, 129S1, mouse, in vivo, po, 250 mg/kg, tmax, lung; 250 mg/kg PO multiple, 5-day, dose

Compound: Cc1c(-c2ccc(O)cc2)n(Cc2ccc(OCCN3CCCCC3)cc2)c2ccc(O)cc12 [Pipendoxifene]
Unit Abbrev: h
Tmax at 5 day: 4

---

- Assay Summary: Pharmacokinetics (plasma, lung at 24 h) after single oral dosing in male Sprague-Dawley rats
- Settings: male, Sprague-Dawley, rat, in vivo, po, 250 mg/kg, tmax, male SD rat plasma, single oral 250 mg/kg (Group 1), mean

Compound: Cc1c(-c2ccc(O)cc2)n(Cc2ccc(OCCN3CCCCC3)cc2)c2ccc(O)cc12 [Pipendoxifene]
Tmax / h: 5.33

---

- Assay Summary: Pharmacokinetics (plasma and lung tissue) after single and 5-day repeat oral dosing in female 129S1 mice
- Settings: female, 129S1, mouse, in vivo, 250 mg/kg, Lung/Plasma AUC ratio, Day 1; 250 mg/kg

Compound: Cc1c(-c2ccc(O)cc2)n(Cc2ccc(OCCN3CCCCC3)cc2)c2ccc(O)cc12 [Pipendoxifene]
Kp: 36

---

- Assay Summary: in vivo
- Settings: male, Sprague-Dawley, rat, po, 1000 mg/kg, AUC∞

Compound: Cc1c(-c2ccc(O)cc2)n(Cc2ccc(OCCN3CCCCC3)cc2)c2ccc(O)cc12 [Pipendoxifene]
AUC(0-inf): 7730 ng·h/mL

---

- Assay Summary: Pharmacokinetics (plasma, lung at 24 h) after single oral dosing in male Sprague-Dawley rats
- Settings: male, Sprague-Dawley, rat, in vivo, po, 500 mg/kg, AUClast, male SD rat plasma, single oral 500 mg/kg (Group 2), individual rats 453, 454, 455
Assay Readout: AUC(0-t) (ng·h/mL)

Compound: Cc1c(-c2ccc(O)cc2)n(Cc2ccc(OCCN3CCCCC3)cc2)c2ccc(O)cc12 [Pipendoxifene]
Assay Readout: AUC(0-t)
Measured Number: 5730

---

- Assay Summary: Pharmacokinetics (plasma, lung at 24 h) after single oral dosing in male Sprague-Dawley rats
- Settings: male, Sprague-Dawley, rat, in vivo, po, 250 mg/kg, AUClast, male SD rat plasma, single oral 250 mg/kg (Group 1), mean

Compound: Cc1c(-c2ccc(O)cc2)n(Cc2ccc(OCCN3CCCCC3)cc2)c2ccc(O)cc12 [Pipendoxifene]
AUC(0-t) [ng·h/mL]: 3520
